What normalised viability was measured for each of the following?
test system: CAL-51; experiment: normalised viability (% of control), CellTiter-Blue; higher = more viable cells (about 100 = DMSO control); details: 3 nM; incubation time: 72 h
Respond with the bare value in %.

Task item: Give the reported normalised viability for O=C(/C=C/c1cccnc1)NCCCCC1CCN(C(=O)c2ccccc2)CC1 (system: CAL-51).
Reply: 95.5

Task item: Give the reported normalised viability for CCc1cncnc1N1CCN(Cc2nc3ccc(C(F)(F)F)cc3[nH]2)CC1 (system: CAL-51).
Reply: 94.3

Task item: Give the reported normalised viability for CC[C@H](Nc1ncnc2[nH]cnc12)c1nc2cccc(F)c2c(=O)n1-c1ccccc1 (system: CAL-51).
Reply: 93

Task item: Give the reported normalised viability for O=C(Cc1ccc(-c2ccc(OCCN3CCOCC3)cc2)cn1)NCc1ccccc1 (system: CAL-51).
Reply: 114

Task item: Give the reported normalised viability for COc1cc([C@@H]2c3cc4c(cc3[C@@H](O[C@@H]3O[C@@H]5CO[C@@H](c6cccs6)O[C@H]5[C@H](O)[C@H]3O)[C@H]3COC(=O)[C@H]23)OCO4)cc(OC)c1O [Teniposide] (system: CAL-51).
Reply: 98.2

Task item: Give the reported normalised viability for Nc1nc(F)nc2c1ncn2[C@@H]1O[C@H](CO)[C@@H](O)[C@@H]1O (system: CAL-51).
Reply: 100
